Provide the reported Span of each item.
target: T1, human LILRB2 expressed on cells (293T-LILRB2, CHO-K1-LILRB2) (human, UniProt Q8N423 22-597); experiment: flow cytometry, blockade of His-tagged HLA-G tetramer binding to 293T-LILRB2 cells; fit table under the graph
T1 construct: whole, on cells; the cell line is named under assay; also called HEK293T-LILRB2
T1 sequence (Q8N423 22-597): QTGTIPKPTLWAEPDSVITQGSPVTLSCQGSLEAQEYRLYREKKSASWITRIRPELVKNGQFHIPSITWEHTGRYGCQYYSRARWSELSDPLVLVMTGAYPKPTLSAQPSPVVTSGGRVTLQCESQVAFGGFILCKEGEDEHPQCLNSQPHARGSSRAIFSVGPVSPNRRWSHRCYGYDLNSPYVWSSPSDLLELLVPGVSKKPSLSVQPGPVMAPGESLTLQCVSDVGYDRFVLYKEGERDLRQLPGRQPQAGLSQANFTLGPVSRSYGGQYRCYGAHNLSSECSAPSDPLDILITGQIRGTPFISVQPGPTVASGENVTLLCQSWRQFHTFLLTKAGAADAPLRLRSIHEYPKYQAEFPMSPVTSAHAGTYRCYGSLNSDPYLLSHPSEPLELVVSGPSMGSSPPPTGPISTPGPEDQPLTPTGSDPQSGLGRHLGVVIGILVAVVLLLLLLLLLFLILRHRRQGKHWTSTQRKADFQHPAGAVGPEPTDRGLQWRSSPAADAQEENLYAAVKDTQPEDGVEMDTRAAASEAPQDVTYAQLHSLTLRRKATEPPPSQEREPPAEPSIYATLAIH
Write the answer as a number in RFU, unit excluded.

Query: Specify Span for Antibody 2E1_FC11 (antibody, V domains shown, also called A16) VH: EVQLVESGGGLVQPGGSLRLSCAVSGYSITSGYYWNWIRQAPGKGLEWVAYISYDGNINYNPSLKNRFTISRDTSKNTFYLQMNSLRAEDTAVYYCAREESTMITTAWFAYWGQGTLVTVSS VL: DIQMTQSPSSLSASVGDRVTITCRASENIYSNLAWYQQKPGKAPKLLIYGATNLASGVPSRFSGSGSGTDYTLTISSLQPEDFATYYCQHFWDYPYTFGQGTKVEIK and stop.
Reply: 5700

Query: Specify Span for Antibody 2E1_FD3 (antibody, V domains shown) VH: EVQLVESGGGLVQPGGSLRLSCAVSGYSITSGYYWNWIRQAPGKGLEWVAYISYDGNANYNPSLKNRFTISRDTSKNTFYLQMNSLRAEDTAVYYCAREESTMITTAWFAYWGQGTLVTVSS VL: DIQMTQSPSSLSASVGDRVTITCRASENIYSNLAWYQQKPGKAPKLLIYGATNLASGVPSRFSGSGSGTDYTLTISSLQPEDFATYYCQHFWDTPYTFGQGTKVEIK and stop.
Reply: 6750

Query: Specify Span for Antibody 2E1_FC3 (antibody, V domains shown) VH: EVQLVESGGGLVQPGGSLRLSCAVSGYSITSGYYWNWIRQAPGKGLEWVAYISYDGNTNYNPSLKNRFTISRDTSKNTFYLQMNSLRAEDTAVYYCAREESTMITTAWFAYWGQGTLVTVSS VL: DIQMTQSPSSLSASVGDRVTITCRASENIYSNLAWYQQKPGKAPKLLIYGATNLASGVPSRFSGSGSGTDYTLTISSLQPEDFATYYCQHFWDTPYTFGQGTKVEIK and stop.
Reply: 9690
